Target: Ectonucleoside triphosphate diphosphohydrolase 3 (Homo sapiens)
Sequence (whole entry): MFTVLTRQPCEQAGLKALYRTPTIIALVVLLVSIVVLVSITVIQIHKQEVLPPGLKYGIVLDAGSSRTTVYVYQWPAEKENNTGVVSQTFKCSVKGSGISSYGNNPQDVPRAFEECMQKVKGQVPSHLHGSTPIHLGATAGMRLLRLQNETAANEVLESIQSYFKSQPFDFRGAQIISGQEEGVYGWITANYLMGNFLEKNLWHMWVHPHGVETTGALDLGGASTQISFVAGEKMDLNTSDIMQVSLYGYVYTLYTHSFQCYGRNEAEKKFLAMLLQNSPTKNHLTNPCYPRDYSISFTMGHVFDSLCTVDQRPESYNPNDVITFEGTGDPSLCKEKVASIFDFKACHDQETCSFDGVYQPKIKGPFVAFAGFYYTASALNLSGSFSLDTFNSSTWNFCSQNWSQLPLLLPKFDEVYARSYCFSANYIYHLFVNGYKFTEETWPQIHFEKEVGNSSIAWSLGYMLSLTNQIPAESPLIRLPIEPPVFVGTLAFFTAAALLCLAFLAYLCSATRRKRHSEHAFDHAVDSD
Test: Inhibition of human NTPDase 3 expressed in COS7 cells at 1mM
Assay type: cell-based
Conditions: COS-7
inhibition for assorted molecules
Answer format: numeric, % implied, no suffix.

CCOP(=O)(Cc1ccc(NC(=O)CCNC(=O)[C@H]2O[C@@H](n3cnc4c(N)ncnc43)[C@H](O)[C@@H]2O)cc1)OCC    0
CCOP(=O)(CNC(=O)CCCNC(=O)[C@H]1O[C@@H](n2ccc(=O)[nH]c2=O)[C@H](O)[C@@H]1O)OCC    0

Q) Returns the measured inhibition for the input molecule. Input: CCOP(=O)(Cc1ccc(NC(=O)CCCNC(=O)[C@H]2O[C@@H](n3cnc4c(N)ncnc43)[C@H](O)[C@@H]2O)cc1)OCC
A) 0

Q) Same again, this time with CCOP(=O)(Cc1ccc(NC(=O)CNC(=O)[C@H]2O[C@@H](n3cnc4c(N)ncnc43)[C@H](O)[C@@H]2O)cc1)OCC
A) 0

Q) Try this molecule too: CCOP(=O)(CNC(=O)CNC(=O)[C@H]1O[C@@H](n2ccc(=O)[nH]c2=O)[C@H](O)[C@@H]1O)OCC
A) 0

Q) Next molecule up: CCOP(=O)(Cc1ccc(NC(=O)CCNC(=O)[C@H]2O[C@@H](n3ccc(=O)[nH]c3=O)[C@H](O)[C@@H]2O)cc1)OCC
A) 40

====

target: P2Y purinoceptor 4 (Homo sapiens, UniProt P51582); assay: Antagonist activity at human P2Y4 receptor expressed in human 1321N1 cells assessed as inhibition of UTP-induced receptor activation at 100 uM relative to UTP; format: functional, cell-based; design: scale not given: the % may be the effect or the level left
Sequence (P51582 whole entry): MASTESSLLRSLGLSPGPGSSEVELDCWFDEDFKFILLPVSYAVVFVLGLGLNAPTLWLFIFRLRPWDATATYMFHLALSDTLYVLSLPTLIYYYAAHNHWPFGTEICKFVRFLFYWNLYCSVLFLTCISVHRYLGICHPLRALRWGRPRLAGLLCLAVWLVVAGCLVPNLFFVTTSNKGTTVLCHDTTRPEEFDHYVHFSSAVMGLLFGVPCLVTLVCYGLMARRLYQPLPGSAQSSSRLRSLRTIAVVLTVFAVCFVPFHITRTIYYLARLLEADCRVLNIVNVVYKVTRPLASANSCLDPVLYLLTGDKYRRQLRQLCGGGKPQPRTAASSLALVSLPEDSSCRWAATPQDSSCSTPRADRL
outcomeMeasure: Activity

Worked cases, answers included:
CCOP(=O)(CNC(=O)CNC(=O)[C@H]1O[C@@H](n2ccc(=O)[nH]c2=O)[C@H](O)[C@@H]1O)OCC    46%
CCOP(=O)(Cc1ccc(NC(=O)CCNC(=O)[C@H]2O[C@@H](n3ccc(=O)[nH]c3=O)[C@H](O)[C@@H]2O)cc1)OCC    -6%
CCOP(=O)(Cc1ccc(NC(=O)CCNC(=O)[C@H]2O[C@@H](n3cnc4c(N)ncnc43)[C@H](O)[C@@H]2O)cc1)OCC    11%

// moving on: another record for Activity
Q) State the recorded Activity for this entry: CCOP(=O)(CNC(=O)CNC(=O)[C@H]1O[C@@H](n2cnc3c(N)ncnc32)[C@H](O)[C@@H]1O)OCC
A) -2%
